Test target: CMKLR1 (Homo sapiens, UniProt Q99788)
Construct: host or cells: CHO-K1 (PathHunter CMKLR1 β-Arrestin cells)
Sequence (Q99788 whole entry): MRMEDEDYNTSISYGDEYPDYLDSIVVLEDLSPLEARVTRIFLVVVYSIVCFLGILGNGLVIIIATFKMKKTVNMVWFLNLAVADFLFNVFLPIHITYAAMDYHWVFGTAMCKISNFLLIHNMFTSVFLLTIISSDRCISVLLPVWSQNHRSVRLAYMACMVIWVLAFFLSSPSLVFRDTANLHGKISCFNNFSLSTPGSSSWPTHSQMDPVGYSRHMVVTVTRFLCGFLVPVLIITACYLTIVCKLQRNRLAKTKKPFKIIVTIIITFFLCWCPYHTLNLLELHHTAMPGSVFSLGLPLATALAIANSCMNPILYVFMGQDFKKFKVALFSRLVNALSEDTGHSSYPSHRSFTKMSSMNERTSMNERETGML
Procedure text: β-arrestin recruitment assay (chemerin-dependent β-arrestin2 signaling)
Assay type: cell-based
Assay setup: Table 2 tertiary amines; CMKLR1-CHO-β-Arrestin cells, 20 nM chemerin; read-out: β-arrestin IC50 mean ± SEM (n)
Quantity kind: IC50

Past entries and their recorded results:
CN(C)CCC(=O)C1CCCCC1	> 100 µM
COc1ccc(C(=O)CCN(C)C)cc1	> 100 µM
COc1ccccc1C(=O)CCN(C)C	> 100 µM

Next compound, please.
Return reported IC50 for target or system CMKLR1 (Homo sapiens, UniProt Q99788), item COc1ccc2cc(C(=O)CCN(C)C)ccc2c1 .
> 100 µM

* * *

Test target: CMKLR1 (Homo sapiens)
Construct: host or cells: CHO-K1 (PathHunter CMKLR1 β-Arrestin cells)
Procedure text: β-arrestin recruitment assay (chemerin-dependent β-arrestin2 signaling)
Type: cell-based
Assay setup: Table 3 quaternary ammonium salts; CMKLR1-CHO-β-Arrestin cells, 20 nM chemerin; read-out: β-arrestin IC50 mean ± SEM (n)
Quantity kind: IC50 (µM)
One number for each entry, in µM.

C[N+](C)(C)CCC(=O)C1CCCCC1	11.9
COc1ccc(C(=O)CC[N+](C)(C)C)c(OC)c1	4.8
C[N+](C)(C)CCC(=O)c1ccccc1.[I-]	5.6
COc1ccc(C(=O)CC[N+](C)(C)C)cc1.[I-]	1.9
COc1cc(OC)cc(C(=O)CC[N+](C)(C)C)c1	6
COc1cccc(C(=O)CC[N+](C)(C)C)c1	3.8
C[N+](C)(C)CCC(=O)c1cccc2ccccc12.[I-]	4.9
COc1ccccc1C(=O)CC[N+](C)(C)C.[I-]	2.9
COc1cccc(OC)c1C(=O)CC[N+](C)(C)C.[I-]	2.1

Field: next compound
Dear colleague, please send me the reported IC50 for C[N+](C)(C)CCC(=O)c1ccc2ccccc2c1 when you can.
2.5
